Target: T1, FX activation peptide 12-mer DLLDFNQTQPER (human)
T1 peptide: DLLDFNQTQPER-biotin
Test: peptide ELISA
Ends that are not written are not given here.
Below: a set of entries, each annotated with reported ELISA signal relative to background.
Number, no unit, nothing else.

Reported ELISA signal relative to background for Nb 701B09 (VHH, monovalent Nanobody; also called Nb 701609; not shown: C-terminal FLAG3 and HIS6 tag) VHH: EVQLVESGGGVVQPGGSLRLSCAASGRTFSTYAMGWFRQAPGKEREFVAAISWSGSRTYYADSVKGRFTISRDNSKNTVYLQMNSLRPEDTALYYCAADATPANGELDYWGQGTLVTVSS was 1.17

Reported ELISA signal relative to background for Nb 501A02 (VHH, monovalent control Nanobody; also called control Nanobody; not shown: C-terminal FLAG3 and HIS6 tag) VHH: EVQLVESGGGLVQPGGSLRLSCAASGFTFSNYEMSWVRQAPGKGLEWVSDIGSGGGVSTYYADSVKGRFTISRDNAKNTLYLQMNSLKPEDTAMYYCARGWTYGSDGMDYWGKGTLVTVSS was 0.76

Reported ELISA signal relative to background for Nb 702C12 (VHH, monovalent Nanobody; not shown: C-terminal FLAG3 and HIS6 tag) VHH: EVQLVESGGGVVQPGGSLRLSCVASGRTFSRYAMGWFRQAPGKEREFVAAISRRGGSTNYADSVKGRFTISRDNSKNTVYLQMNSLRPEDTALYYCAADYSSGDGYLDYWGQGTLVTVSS was 3.08

Reported ELISA signal relative to background for Nb 701D07 (VHH, monovalent Nanobody; not shown: C-terminal FLAG3 and HIS6 tag) VHH: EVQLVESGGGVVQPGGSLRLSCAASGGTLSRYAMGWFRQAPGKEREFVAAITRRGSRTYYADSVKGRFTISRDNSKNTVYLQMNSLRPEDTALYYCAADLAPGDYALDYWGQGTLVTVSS was 0.81

Each recorded value in this set is attributed to patent US20210054097A1.
